Assay: logP determination by HPLC on a reversed-phase column (C18), EEC Directive 79/831 Annex V.A8
Format: physicochemical
Settings: HPLC on reversed-phase column (C18)
testReadout: log P
Just the number, please.

[
  {
    "molSmiles": "CCS(=O)(=O)c1cc(C(F)(C(F)(F)F)C(F)(F)F)cc(S(=O)(=O)CC)c1-n1cc(-c2ccc(Cl)c(C(=O)NC3(C#N)CC3)c2)cn1",
    "log P": 3.7
  },
  {
    "molSmiles": "CCSc1cc(C(F)(C(F)(F)F)C(F)(F)F)cc(Cl)c1-n1cc(-c2ccc(Cl)c(C(=O)NC3(C#N)CC3)c2)cn1",
    "log P": 4.5
  },
  {
    "molSmiles": "Cc1cc(C(F)(C(F)(F)F)C(F)(F)F)cc(C(F)(F)F)c1-n1cc(-c2cnc(Cl)c(C(=O)NCC3(C#N)CC3)c2)cn1",
    "log P": 4.0
  },
  {
    "molSmiles": "CCS(=O)(=O)c1cc(C(F)(C(F)(F)F)C(F)(F)F)cc(C)c1-n1cc(-c2ccc(Cl)c(C(=O)NC3CC3)c2)cn1",
    "log P": 3.9
  },
  {
    "molSmiles": "CCS(=O)(=O)c1cc(C(F)(C(F)(F)F)C(F)(F)F)cc(Cl)c1-n1cc(-c2ccc(Cl)c(C(=O)NC3(C#N)CC3)c2)cn1",
    "log P": 4.0
  }
]

compound `O=C(NC1CC1)c1cc(-c2cnn(-c3c(Cl)cc(C(F)(C(F)(F)F)C(F)(F)F)cc3I)c2)ccc1Cl` , log P observed: 4.4

compound `CCOc1cc(C(F)(C(F)(F)F)C(F)(F)F)cc(OCC)c1-n1cc(-c2cnc(Cl)c(C(=O)N(C)C3CC3)c2)cn1` , log P observed: 4.7

compound `N#CC1(NC(=O)c2cc(-c3cnn(-c4c(Cl)cc(C(F)(C(F)(F)F)C(F)(F)F)cc4OC(F)F)c3)ccc2Cl)CC1` , log P observed: 4.1

compound `N#CC1(NC(=O)c2cc(-c3cnn(-c4c(Cl)cc(C(F)(F)F)c(F)c4Cl)c3)ccc2Cl)CC1` , log P observed: 3.6

compound `CCSc1cc(C(F)(C(F)(F)F)C(F)(F)F)cc(C)c1-n1cc(-c2ccc(Cl)c(C(=O)NC3CC3)c2)cn1` , log P observed: 4.6

compound `O=C(NC1CC1)c1cc(-c2cnn(-c3c(Cl)cc(C(F)(F)F)c(F)c3Cl)c2)ccc1Cl` , log P observed: 3.6

compound `CN(C(=O)c1cc(-c2cnn(-c3c(Cl)cc(C(F)(C(F)(F)F)C(F)(F)F)cc3OC(F)F)c2)cnc1Cl)C1CC1` , log P observed: 4.2

compound `CN(C(=O)c1cc(-c2cnn(-c3c(I)cc(C(F)(C(F)(F)F)C(F)(F)F)cc3C(F)(F)F)c2)ccc1Cl)C1CC1` , log P observed: 5.1

compound `N#Cc1cc(C(F)(C(F)(F)F)C(F)(F)F)cc(Cl)c1-n1cc(-c2cnc(Cl)c(C(=O)NC3CC3)c2)cn1` , log P observed: 3.5

compound `CCS(=O)(=O)c1cc(C(F)(C(F)(F)F)C(F)(F)F)cc(C)c1-n1cc(-c2ccc(Cl)c(C(=O)NC3(C#N)CC3)c2)cn1` , log P observed: 3.8

compound `CN(C(=O)c1cc(-c2cnn(-c3c(Cl)cc(C(F)(C(F)(F)F)C(F)(F)F)cc3OC(F)(F)F)c2)cnc1Cl)C1CC1` , log P observed: 4.6

compound `CCS(=O)(=O)c1cc(C(F)(F)F)cc(C#N)c1-n1cc(-c2ccc(Cl)c(C(=O)NC3(C#N)CC3)c2)cn1` , log P observed: 2.9

compound `CCS(=O)(=O)c1cc(C(F)(F)F)cc(Cl)c1-n1cc(-c2ccc(Cl)c(C(=O)NC3(C#N)CC3)c2)cn1` , log P observed: 3.1

compound `O=C(NC1CC1)c1cc(-c2cnn(-c3c(I)cc(C(F)(C(F)(F)F)C(F)(F)F)cc3OC(F)(F)F)c2)ccc1Cl` , log P observed: 4.7

compound `N#CC1(NC(=O)c2cc(-c3cnn(-c4c(F)cc(C(F)(F)F)cc4Cl)c3)ccc2Cl)CC1` , log P observed: 3.3

compound `CN(C(=O)c1cc(-c2cnn(-c3c(Cl)cc(C(O)(C(F)(F)F)C(F)(F)F)cc3Cl)c2)cnc1Cl)C1(C#N)CC1` , log P observed: 3.3
